# Run description: Half life in in vitro kinetic model containing Mueller-Hinton broth and bacteria
# Assay type: physicochemical
# Conditions: in vitro kinetic model with bacteria

Smiles data | half-life
CCCCCCCCCCNCCN[C@@]1(C)C[C@H](O[C@H]2[C@H](Oc3c4cc5cc3Oc3ccc(cc3Cl)[C@@H](O)[C@@H](NC(=O)[C@@H](CC(C)C)NC)C(=O)N[C@@H](CC(N)=O)C(=O)N[C@H]5C(=O)N[C@H]3C(=O)N[C@H](C(=O)N[C@H](C(=O)O)c5cc(O)c(CNCP(=O)(O)O)c(O)c5-c5cc3ccc5O)[C@H](O)c3ccc(c(Cl)c3)O4)O[C@H](CO)[C@@H](O)[C@@H]2O)O[C@@H](C)[C@H]1O | 8 h

====

# Run description: AUC (0 to 24 hrs) in human at 10 mg/kg once daily
# Type: ADME, organism-based
# Parameters: time < 24 hr, dose 10 mg/kg
# Conditions: plasma
Experimental endpoint: AUC at 24 h (ng·h/mL)

Compound | Measured number
CCCCCCCCCCNCCN[C@@]1(C)C[C@H](O[C@H]2[C@H](Oc3c4cc5cc3Oc3ccc(cc3Cl)[C@@H](O)[C@@H](NC(=O)[C@@H](CC(C)C)NC)C(=O)N[C@@H](CC(N)=O)C(=O)N[C@H]5C(=O)N[C@H]3C(=O)N[C@H](C(=O)N[C@H](C(=O)O)c5cc(O)c(CNCP(=O)(O)O)c(O)c5-c5cc3ccc5O)[C@H](O)c3ccc(c(Cl)c3)O4)O[C@H](CO)[C@@H](O)[C@@H]2O)O[C@@H](C)[C@H]1O [TELAVANCIN] | 51000

====

# Run description: Cmax in human serum at 7.5 mg/kg
# Type: ADME, organism-based
# Design: dose 7.5 mg/kg

Compound | Cmax / µg/mL
CCCCCCCCCCNCCN[C@@]1(C)C[C@H](O[C@H]2[C@H](Oc3c4cc5cc3Oc3ccc(cc3Cl)[C@@H](O)[C@@H](NC(=O)[C@@H](CC(C)C)NC)C(=O)N[C@@H](CC(N)=O)C(=O)N[C@H]5C(=O)N[C@H]3C(=O)N[C@H](C(=O)N[C@H](C(=O)O)c5cc(O)c(CNCP(=O)(O)O)c(O)c5-c5cc3ccc5O)[C@H](O)c3ccc(c(Cl)c3)O4)O[C@H](CO)[C@@H](O)[C@@H]2O)O[C@@H](C)[C@H]1O [TELAVANCIN] | 60
